Parameter: melting point. Scope: all listed entries.

Record excerpt, results attached:
CCCCc1nc(I)c(CO)[nH]1 ... 166 °C
CC(=O)Oc1c(OC(C)=O)c([C@H]2CC[C@H](c3ccc(Cl)cc3)CC2)c(OC(C)=O)c2ccccc12 ... 177 to 179 °C
CC1(C)CON(CC2=C(Cl)CC(=NCc3ccccc3O)C=C2)C1=O ... 105 to 107 °C
COc1cc(OCc2ccccn2)ccc1/C=C/c1cc(/C=C/c2cc([N+](=O)[O-])c3cc[nH]c3c2)[nH]n1 ... 125 to 131 °C
Cc1cc(C)n(-c2nc(Nc3cccc(Cl)c3)c3ccccc3n2)n1 ... 259 to 262 °C
CC(C)(C)C1CCC(OO)(OO)CC1 ... 83 to 84 °C
COc1cccc(-c2cn3c(n2)CCc2ccccc2-3)c1 ... 107 to 109 °C
CC(=CN(C)C)C(=O)c1cccc(C(F)(F)F)c1 ... 53 to 55 °C
CCC1(CC)c2cc(I)ccc2-c2ccc(C=O)cc21 ... 138 to 140 °C
CCCc1nc2cc(Cl)c(S(N)(=O)=O)cc2[nH]1 ... 230 to 234 °C

For N#Cc1c(Cl)nc2cscc2c1Cl , what is its reported melting point?
228 °C

Fill in: melting point of COc1ccc(-c2c(C(=O)O)c3ccccc3n2C)cc1 is ___
229 to 230 °C

Returns the measured melting point for the input compound. Input: CCCCN(CCCC)c1ccc(C=Cc2ccc(C=CC3=C(C#N)C(=C(C#N)C#N)OC3(C)C)s2)c(OCc2ccccc2)c1
218 to 219 °C

What does the record list as melting point for CC(=O)NC1=CC(C)(C)Oc2ccc(C#N)cc21 ?
146 to 147 °C

Name the recorded melting point for O=C1N(Cc2ccc(C(F)(F)F)o2)c2ccccc2C12COc1cc3c(cc12)OC(F)(F)O3 (stereo not given) .
59 to 60 °C

What does the record list as melting point for COc1cccc(C(=O)C=C2CCCN2C)c1 ?
92 to 93 °C

---

The following compounds are listed with their measured melting point values.

CC(=O)Oc1ccc2c(c1)CCC1C2CCC2(C)C(OC(=O)c3ccccc3)CCC12 (stereo not drawn) ... 148 to 150 °C
COC(=O)CCSCC(=O)c1cc2c(cc1Cl)NC(=O)C2 ... 75 to 77 °C
O=C(O)c1ccc(NC(=O)[C@H](Cc2ccc(-c3ccccc3)cc2)NCP(=O)(O)O)cc1 ... 270 to 274 °C
COc1c(Br)c(-c2cc(C(C)C)n(C)n2)cc2oc(=O)c(Cl)c(C)c12 ... 165 °C
COc1cc2c(cc1C(F)(F)F)N(C(=O)Nc1cncc(-c3cnccc3C)c1)CC2 ... 125 to 128 °C

Look at this compound and give its reported melting point. C=C(C)C(=O)Nc1nc(CCC)n(Cc2ccc(-c3ccccc3-c3nnn[nH]3)cc2)c1C(=O)OCC
134 to 136 °C

# input compound: COc1ccc2c(c1)c(CC(=O)OCC(=O)O)c(C)n2C(=O)c1ccccc1C(F)(F)F ; wanted: its melting point
121 to 122 °C

Please look up its melting point: CN(C)c1ccc([N+](=O)[O-])cn1
146 to 149 °C

Field request: melting point | item: N#CCc1cnc(N)cn1
132 to 134 °C

Entry CCCS(=O)(=O)c1ncc(C(F)(F)F)cc1Cl : reported melting point = ?
41 to 42 °C

Would you mind telling me what melting point value was observed for COc1cccc(OC)c1C(=O)P(=O)(C(=O)c1c(OC)cccc1OC)c1ccccc1 ?
155 °C

Need melting point, item CCCc1c(OCC(O)COc2ccc(C(=O)O)cc2Cl)ccc(C(C)=O)c1O (stereo not drawn)
100 to 103 °C

Give its melting point value. Item: COC(=O)CC(=O)c1cc(C(=O)OC)cc(-n2cccc2)c1
82 to 84 °C

What measured melting point goes with CC(C)(C)OC(=O)c1nc(-c2ccc(Cl)cc2)[nH]c1-c1ccncc1 ?
206 to 207 °C

Quick one: melting point for Cc1cc2c(s1)N(C(C)C)c1ccccc1N=C2N1CCN(C)CC1 ?
120 to 121 °C
